Test system: Staphylococcus aureus
Experiment: Antibacterial activity against Staphylococcus aureus NRRL B 313 at 50 mg/ml after 24 hrs by agar diffusion test
Type: functional
Conditions: NRRL B 313, 24 h, read-out: DIZ

Smiles repr: CC[C@H](CO)NCc1ccc2ccc3cccc4ccc1c2c34
zone of inhibition at 50000 µg/mL [mm]: 13

Smiles repr: CC[C@H](CO)NCc1ccc2c(c1)Cc1ccccc1-2
zone of inhibition at 50000 µg/mL [mm]: 17

Smiles repr: CC[C@H](CO)NC(=O)C(C)(C)C
zone of inhibition at 50000 µg/mL [mm]: 15

Smiles repr: CC[C@H](CO)NCc1ccc(-n2ccnc2)cc1
zone of inhibition at 50000 µg/mL [mm]: 16

Smiles repr: CC[C@H](CO)NCc1ccnc2ccccc12
zone of inhibition at 50000 µg/mL [mm]: 14

Smiles repr: CC[C@H](CO)NCc1ccc(-c2ccccc2)cc1
zone of inhibition at 50000 µg/mL [mm]: 20

Smiles repr: CC[C@H](CO)NP(=O)(c1ccccc1)c1ccccc1
zone of inhibition at 50000 µg/mL [mm]: 18

Smiles repr: CC[C@H](CO)N(Cc1ccccc1)Cc1ccccc1
zone of inhibition at 50000 µg/mL [mm]: 11

Smiles repr: CC[C@@H]1COc2cc3ccccc3c(=O)n21
zone of inhibition at 50000 µg/mL [mm]: 12

Smiles repr: CC[C@H](CO)N(CC(=O)Nc1c(C)cccc1C)CC(=O)Nc1c(C)cccc1C
zone of inhibition at 50000 µg/mL [mm]: 15

Smiles repr: CC[C@H](CO)NCc1cccc2ccccc12
zone of inhibition at 50000 µg/mL [mm]: 16

Smiles repr: CC[C@H](CO)NCc1c2ccccc2cc2ccccc12
zone of inhibition at 50000 µg/mL [mm]: 19

Smiles repr: CC[C@H](CO)NCc1ccccc1OC
zone of inhibition at 50000 µg/mL [mm]: 10
